# experiment: gradient 5% acetonitrile 3 min, to 50% in 2 min, to 85% in 15 min, held 3 min, 100 µL/min
# conditionLabel: column: Zorbax Extend-C18 2.1 x 50 mm; eluents: water / acetonitrile, 0.1% formic acid
I would appreciate it if you labelled entries Criterion met when RP-LC retention time is 900 s or higher, otherwise Criterion not met.

CCOC(=O)C1CCN(C(=O)c2nnc(-c3ccc(S(=O)(=O)N(C)C)cc3)o2)CC1
Criterion not met
CN1CCC(OC2CCN(C(=O)CC3CCCC3)CC2)CC1
Criterion not met
O=C(Cn1nc2c(SC3CCCCC3)nccn2c1=O)NC1CCCCC1
Criterion met
COc1ccc2c(c1)c1ncn(Cc3nc(C4CC4)no3)c(=O)c1n2Cc1c(F)cccc1Cl
Criterion met
O=S(=O)(Cc1cccc(Cl)c1)N1CCc2nc(-c3ccc(F)cc3)ncc2C1
Criterion met
Cc1ccc(-c2nnc(Cc3nc(-c4cccc(Cl)c4)no3)o2)cc1F
Criterion met
CCc1ccc(OCc2nc(CC(=O)Nc3nc(-c4ccc(C)cc4)cs3)cs2)cc1
Criterion met
CCCN1C(=O)COc2ccc(-c3noc(-c4ccc(C(F)(F)F)cc4)n3)cc21
Criterion met
O=C(NCc1ccc(C(F)(F)F)cc1)c1cnc(-c2ccccc2)nc1-c1ccncc1
Criterion met
CCN1CCCC1CNC(=O)c1nc(-c2oc3ccc(OC)cc3c2C)no1 (centres undefined)
Criterion not met
Cc1ccc(S(=O)(=O)N2CCOCC2)cc1-c1nnc(-c2ccc(Cl)cc2)o1
Criterion met
CC(=O)/C=C1\SC(CC(=O)O)C(=O)N1c1ccccc1 (centres undefined)
Criterion not met
O=C(NCc1ccc(F)cc1)NC1CCN(C(=O)N2C[C@H]3C[C@H](C2)[C@H]2CCCC(=O)N2C3)CC1
Criterion not met
Cc1ccc(NS(=O)(=O)c2cc3n(c2)CCCN(C)C3=O)cc1C
Criterion not met
CCn1nc(C(=O)Nc2nc3c(OC)ccc(C)c3s2)cc1C
Criterion not met
COc1ccc(OC)c(NC(=O)N2CCCC(Cn3cnc4cccnc43)C2)c1 (centres undefined)
Criterion not met
Cc1nn(CC(=O)N2CCOCC2)c(=O)c2c(-n3cccc3)n(-c3ccc(F)cc3)nc12
Criterion not met

###

# experiment: gradient 5% acetonitrile 3 min, to 50% in 2 min, to 85% in 15 min, held 3 min, 100 µL/min
# conditionLabel: column: Zorbax Extend-C18 2.1 x 50 mm; eluents: water / acetonitrile, 0.1% formic acid
readoutName: RP-LC retention time (s)

COc1ccc(OC)c(S(=O)(=O)N2CCCC(C(=O)Nc3cccc(SC)c3)C2)c1 (centres undefined)
972
Cc1ccc2nc(-c3ccccc3F)c(Nc3c(C)cccc3C)n2c1
793
CC(C)(O)CC[C@@H](O)[C@@](C)(O)[C@H]1CC[C@@]2(O)C3=CC(=O)[C@@H]4C[C@@H](O)[C@@H](O)C[C@]4(C)[C@H]3CC[C@]12C
607
CCOc1ccc(-c2noc(CN3N=NC4C(=O)N(c5ccc(F)cc5)C(=O)C43)n2)cc1OC (centres undefined)
936

###

# experiment: gradient 5% acetonitrile 3 min, to 50% in 2 min, to 85% in 15 min, held 3 min, 100 µL/min
# conditionLabel: column: Zorbax Extend-C18 2.1 x 50 mm; eluents: water / acetonitrile, 0.1% formic acid
readoutName: RP-LC retention time

CCNC(=O)C1CCN(S(C)(=O)=O)c2cc(C)ccc2O1 (centres undefined)
696 s
Cc1cc(C)cc(C(=O)NCc2nn(C)c3ccccc23)c1
854 s
O=C(NCc1ccccc1)N1[C@H]2CC[C@@H]1c1cnc(-c3ccccc3)nc1C2
865 s
CCOc1ccc(Cl)cc1S(=O)(=O)N1CCC(C(=O)NC2CCCC2)CC1
916 s
CC1CCN(C(=O)c2ccc(OCC3CCN(C(=O)c4ccc(C#N)cc4)CC3)cc2)CC1
957 s
CN(C)c1ccc(-c2nc3ncccn3c2NCc2ccccc2)cc1
726 s
Cc1ccc(CNC(=O)Cn2c(=O)c3nnc(C)n3c3ncccc32)cc1
692 s
COc1ccc(-c2cc3c4nnc(CCC(=O)N5CCC(C(N)=O)CC5)n4ccn3n2)cc1
613 s
Cc1nnc(-c2cc3ccccc3n2CC(=O)Nc2ccc(C(F)(F)F)cc2)o1
966 s

###

# experiment: gradient 5% acetonitrile 3 min, to 50% in 2 min, to 85% in 15 min, held 3 min, 100 µL/min
# conditionLabel: column: Zorbax Extend-C18 2.1 x 50 mm; eluents: water / acetonitrile, 0.1% formic acid
Note to self: class labels come from recorded RP-LC retention time, ranges listed here: 1: < 700 s; 2: ≥ 700 s and < 800 s; 3: ≥ 800 s

O=C(CC1CCCC1)N1CCN(c2ncccc2-c2nnc(C3CC3)o2)CC1
3
Oc1ccc(-c2nc3ccc(Cl)cn3c2Nc2ccc3c(c2)OCCO3)cc1
2
CC(C)NC(=O)N1CCCC(CCc2nnc(-c3cnccn3)o2)C1 (centres undefined)
1
CCN(CCCNC(=O)C1CCN(c2nccc3c(C)nn(C)c23)CC1)c1ccccc1
1
CCC(=O)N1N=C(c2cccc(NS(=O)(=O)CC)c2)CC1c1cccc([N+](=O)[O-])c1 (centres undefined)
1

###

# experiment: gradient 5% acetonitrile 3 min, to 50% in 2 min, to 85% in 15 min, held 3 min, 100 µL/min
# conditionLabel: column: Zorbax Extend-C18 2.1 x 50 mm; eluents: water / acetonitrile, 0.1% formic acid
readoutName: RP-LC retention time (s)

Cn1cc(-c2cc3n(n2)CCC(=O)N3CC(=O)N2CCC(N3CCCCC3)CC2)c2ccccc21
623
Cc1nc(-c2cc(S(=O)(=O)NCCCN3CCCC(C)C3)c(C)s2)sc1C (centres undefined)
704
O=C(Nc1ccc2c(c1)OCCO2)N1CCN(Cc2nc3cccnc3n2-c2ccccc2)CC1
635
CCc1ccc(-n2nnc(C(=O)N3CCC4(CC3)OCCO4)c2-c2cccnc2)cc1
783
CCn1c(=O)n(CC)c2cc(S(=O)(=O)c3ccc(C)cc3)c(NC(=O)C3CC3)cc21
873
COCCCNS(=O)(=O)c1cc(-c2[nH]ncc2C(=O)N2CCCCC2)oc1C
646
O=C(Nc1ccccc1Cl)N(CCc1ccccc1)Cc1ccccn1
852
COc1ccc(CCNS(=O)(=O)c2c(N)n(C)c(=O)n(C)c2=O)cc1OC
605
Cc1cc(C)cc(NC(=O)c2cc(C)n3nccc3n2)c1
1020

###

# experiment: gradient 5% acetonitrile 3 min, to 50% in 2 min, to 85% in 15 min, held 3 min, 100 µL/min
# conditionLabel: column: Zorbax Extend-C18 2.1 x 50 mm; eluents: water / acetonitrile, 0.1% formic acid
# RP-LC retention time >= 700 s gives YES, anything below gives NO

COc1nn(C)cc1C(=O)NCC(=O)NC1CCSC1=O (stereo not given)
NO
CS(=O)(=O)Nc1cccc(NC(=O)c2coc(NC(=O)c3ccccc3)n2)c1
NO
COc1ccc(-c2noc(Cn3ccn(-c4cc(C)cc(C)c4)c(=O)c3=O)n2)cc1
YES
C[C@H]1CN(C(=O)Nc2ccccc2Cl)C[C@@H]1c1nc(-c2ccncc2)no1
YES
COc1ccc(C(=O)Nc2nc(CC(=O)NCc3cccs3)cs2)cc1
YES

###

# experiment: gradient 5% acetonitrile 3 min, to 50% in 2 min, to 85% in 15 min, held 3 min, 100 µL/min
# conditionLabel: column: Zorbax Extend-C18 2.1 x 50 mm; eluents: water / acetonitrile, 0.1% formic acid
Labels assigned by RP-LC retention time range: Low (below 800 s), Mid (800 s to below 1000 s), High (1000 s or more)

Cc1cccc(NC(=O)C2CCCN(c3ccc(=O)n(-c4cccc(Cl)c4)n3)C2)c1C (centres undefined)
Mid
O=C(NC1CCCCC1N1C(=O)CSC1=O)c1cc(-c2ccc(F)cc2)n[nH]1 (centres undefined)
Low
Cc1cc(C)cc(N2CC(c3nc(-c4ccc5c(c4)OCO5)no3)CC2=O)c1 (centres undefined)
High
Cc1ccccc1NC(=O)N1CCN(c2nc3ccccc3nc2C(F)(F)F)CC1
High
CN(C)S(=O)(=O)c1ccc(-c2nnc(C(=O)NCc3ccccn3)o2)cc1
Low
CCCN1C(=O)c2c(C(=O)NCCc3ccccc3)ncn2CC1(C)C(=O)NC1CCCC1 (centres undefined)
Mid
CCOc1ccc(N2C(=O)C3N=NN(Cc4nc(-c5cccc(C(F)(F)F)c5)no4)C3C2=O)cc1 (centres undefined)
High
Cc1cc(C)n(CCC(=O)NCC23CCCC=C2NC(=O)CC3)n1 (centres undefined)
Low

###

The entries below are paired with their reported RP-LC retention time.
# experiment: gradient 5% acetonitrile 3 min, to 50% in 2 min, to 85% in 15 min, held 3 min, 100 µL/min
# conditionLabel: column: Zorbax Extend-C18 2.1 x 50 mm; eluents: water / acetonitrile, 0.1% formic acid
readoutName: RP-LC retention time

COC(=O)C1=CN(c2ccccc2)c2ccccc2S1(=O)=O
777 s
CCn1cnc(S(=O)(=O)N2CCCC(C(=O)NCc3ccccc3C)C2)c1 (centres undefined)
726 s
COc1ccc(-c2ncc(C(=O)Nc3ccc(OC)c(OC)c3)c(-c3ccncc3)n2)cc1
769 s
CCN1CCCn2cc(S(=O)(=O)N3CCN(c4ccccc4F)CC3)cc2C1=O
829 s
Cc1ccc(Nc2c(-c3ccc(N(C)C)cc3)nc3ncccn23)cc1
742 s
CCn1cc(CN2CCC(C(=O)NCc3cccc(Cl)c3)CC2)c2cc(OC)ccc21
744 s
COc1ccc(-c2cn3c(CC(=O)Nc4ccccc4OC)csc3n2)cc1
748 s
COCCNC(=O)C1CCN(c2nc3ccc(-c4cccnc4)nc3s2)CC1
578 s
CCNc1nc(C)cc(N2CCN(C(=O)Nc3ccc(Cl)cc3)CC2)n1
682 s
